- protocolDetails: probe aNog binding to arrayed compounds – biochemical, biotinylated probe, 635/667 nm fluorescence, primary screen (AID 1115);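 further: probe is biotinylated aNog protein used at 0.15 µg/mL for 1 h at 4 C; z-score combines 667 nm fluorescence of each spot with its signal to noise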
- conditionLabel: small-molecule microarray, higher = more signal
Class membership depends on composite z-score alone; the intervals are Low: < -0.1; Medium: ≥ -0.1 and < 0.9; High: ≥ 0.9

Consider the following illustrative entries.
- compound: "C=CCC(OC(C)=O)[C@@H]1[C@@H](N(Cc2cc3ccccc3o2)C(=O)Cc2ccc(OC)cc2)c2cc(OCCCO)ccc2N1C(=O)c1ccc2ccccc2c1 (stereo partly specified)"
  group: "Low"
- compound: "COc1ccccc1CN1C(=O)c2ccccc2[C@@H](C(=O)NCc2ccccc2)[C@@H]1c1ccc(CO)cc1"
  group: "Low"
- compound: "CCC(CC)C(O)C1C=CC2C(=O)N(c3ccccc3)C(=O)C2N1Nc1ccccc1 (stereo unspecified)"
  group: "High"
- compound: "CC(C)[Si](C#CCCCC#N)(O[C@H](c1ccccc1)c1cn(Cc2cccc(Cl)c2)nn1)C(C)C"
  group: "Low"
- compound: "COc1ccc(C(O)C2C=CC3C(=O)N(C)C(=O)C3N2NC(=O)OC(C)(C)C)c2ccccc12 (stereo unspecified)"
  group: "High"
- compound: "C=C(C)[C@@H]1CC=C(C(O)C2C=CC3C(=O)NC(=O)C3N2Nc2ccc(Cl)cc2Cl)CC1 (stereo partly specified)"
  group: "High"
- compound: "O=C1O[C@H](c2ccccc2)[C@H](c2ccccc2)N2[C@H]1[C@@H](C(=O)NC[C@H](O)c1ccccc1)[C@]1(C(=O)Nc3ccc(C#CC4=CCCCC4)cc31)[C@H]2c1ccccc1OCCO"
  group: "Medium"
- compound: "OCCCC1=CC(C2CC2)N(Cc2cccc(OC(F)(F)F)c2)CC1 (stereo unspecified)"
  group: "Low"
- compound: "O=C(O)C1N=C(c2ccc(OCCCO)cc2)N(c2ccccc2)O1 (stereo unspecified)"
  group: "Low"
- compound: "[N-]=[N+]=Nc1ccccc1C[C@]1(C(=O)NCC(O)CO)N=C(c2ccc(OCCCO)cc2)O[C@H]1c1ccccc1 (stereo partly specified)"
  group: "Low"

For the record `COCCOC(=O)N1C(=O)[C@@]2(c3cc(C#CCCO)ccc31)[C@H](c1ccc(OCCO)cc1)N1[C@H](c3ccccc3)[C@H](c3ccccc3)OC(=O)[C@H]1[C@@H]2C(N)=O` , report the class its composite z-score corresponds to.
Medium

For the record CCCC1(C(=O)OC)C=C2C(=C(c3ccccc3)C(=O)C2C)CN1 (stereo unspecified) , report the class its composite z-score corresponds to.
High

For the record `NC(=O)[C@@]1(Cc2ccccc2)N=C(c2ccc(OCCCO)cc2)O[C@H]1c1ccccc1` , report the class its composite z-score corresponds to.
High

For the record `COc1ccc([Si](C)(C)[C@@H]2[C@@H](CC(=O)N3CCC[C@H]3CO)O[C@]3(C(=O)N(Cc4cccc(I)c4)c4ccccc43)[C@H]2C)cc1` , report the class its composite z-score corresponds to.
Medium
